Test system: L1210 leukemia ip in BDF1 mice, survival T/C
protocol details: NCI In Vivo Anticancer Drug Screen. Data for tumor model L1210 Leukemia (intraperitoneal) in B6D2F1 (BDF1) mice
protocol conditions: endpoint: mean survival time; dose: 50.0 mg/kg/injection; schedule: Q04DX003 (ip); vehicle: saline; higher = longer survival
Inconclusive results and toxic doses are left out.
measured endpoint: T/C

Here are 2 compounds together with their reported answers.
[
  {
    "compound": "O=C(Nc1c(Oc2ccc(Cl)cc2Cl)ccc(Cl)c1S(=O)(=O)O)Nc1c(Oc2ccc(Cl)cc2Cl)ccc(Cl)c1S(=O)(=O)O",
    "T/C": "101 % of control"
  },
  {
    "compound": "CC(=O)CC(=O)NCC(CCN(C)C)(c1cccc2ccccc12)C(C)C (stereo not drawn)",
    "T/C": "99 % of control"
  }
]

Next compound, T/C to be filled in.
query: Hello, please tell me recorded T/C for this one: CN1CC(C(=O)N2CCCCC2)C=C2c3cccc4[nH]cc(c34)CC21 (stereo not drawn)
result: 98 % of control

###

Tested on: L1210 leukemia ip in BDF1 mice, survival T/C
protocol details: NCI In Vivo Anticancer Drug Screen. Data for tumor model L1210 Leukemia (intraperitoneal) in B6D2F1 (BDF1) mice
protocol conditions: endpoint: mean survival time; dose: 100.0 mg/kg/injection; schedule: Q04DX002 (ip); vehicle: Klucel (hydroxypropylcellulose) (HPC); higher = longer survival
Toxic doses and inconclusive results are not listed.
Consider the following molecules and their measured T/C readings.

Here are 5 molecules together with their reported answers.
[
  {
    "molecule": "O=C(O)c1cc(I)cc(I)c1I",
    "T/C": "105 % of control"
  },
  {
    "molecule": "CCCCOC(=O)C(O)C(C)(Cl)c1ccccc1 (stereo not drawn)",
    "T/C": "106 % of control"
  },
  {
    "molecule": "CC(C)C(=O)Oc1ccc(-c2ccccc2)cc1",
    "T/C": "93 % of control"
  },
  {
    "molecule": "CCCCN1C(=O)CSC1=S",
    "T/C": "97 % of control"
  },
  {
    "molecule": "CCOC(=O)CCCc1c(C)[nH]c2ccc(Cl)cc12",
    "T/C": "98 % of control"
  }
]

query: Hello, please tell me recorded T/C for this one: O=[N+]([O-])c1cc2c(cc1Br)-c1ccccc1C2
result: 93 % of control

query: Hello, please tell me recorded T/C for this one: COC(=O)c1ccc(C(=O)CC(=O)c2ccccc2)cc1.COC(=O)c1ccc(C(=O)CC(=O)c2ccccc2)cc1.COC(=O)c1ccc(C(=O)CC(=O)c2ccccc2)cc1.COC(=O)c1ccc(C(=O)CC(=O)c2ccccc2)cc1.COC(=O)c1ccc(C(=O)CC(=O)c2ccccc2)cc1.[Th]
result: 96 % of control

query: Hello, please tell me recorded T/C for this one: CCCP(=S)(CC)CC
result: 90 % of control

###

Consider the following compounds and their measured T/C readings.
Tested on: L1210 leukemia ip in BDF1 mice, survival T/C
protocol details: NCI In Vivo Anticancer Drug Screen. Data for tumor model L1210 Leukemia (intraperitoneal) in B6D2F1 (BDF1) mice
protocol conditions: endpoint: mean survival time; dose: 100.0 mg/kg/injection; schedule: Q01DX009 (ip); vehicle: Klucel (hydroxypropylcellulose) (HPC); higher = longer survival
Inconclusive results and toxic doses are left out.

[
  {
    "compound": "Cc1cccc(NC(=O)Nc2cc(C)on2)c1",
    "experimental system": "L1210 leukemia ip in BDF1 mice, survival T/C",
    "result": "91 % of control"
  },
  {
    "compound": "Clc1ccc(C2=NC3=CC(Cl)C=CC3=CC2C2CO2)cc1 (stereo not given)",
    "experimental system": "L1210 leukemia ip in BDF1 mice, survival T/C",
    "result": "96 % of control"
  },
  {
    "compound": "O=C(O)C(CCCN1C(=O)c2ccccc2C1=O)N1C(=O)c2ccccc2C1=O (stereo not given)",
    "experimental system": "L1210 leukemia ip in BDF1 mice, survival T/C",
    "result": "93 % of control"
  }
]

query: Hello, please tell me recorded T/C for this one: CCC(CC)(COS(=O)(=O)c1ccc(C)cc1)COS(=O)(=O)c1ccc(C)cc1
result: 93 % of control

query: Hello, please tell me recorded T/C for this one: C[C@@H]1C[C@H]2[C@@H]3CCC4=CC(=O)C=C[C@]4(C)[C@@]3(F)[C@@H](O)C[C@]2(C)[C@@]1(O)C(=O)CO
result: 91 % of control

###

System: L1210 leukemia ip in BDF1 mice, survival T/C
protocol details: NCI In Vivo Anticancer Drug Screen. Data for tumor model L1210 Leukemia (intraperitoneal) in B6D2F1 (BDF1) mice
protocol conditions: endpoint: mean survival time; dose: 100.0 mg/kg/injection; schedule: Q04DX003 (ip); vehicle: Klucel (hydroxypropylcellulose) (HPC); higher = longer survival
Toxic doses and inconclusive results are not listed.
measured endpoint: T/C

Here are 5 molecules together with their reported answers.
[
  {
    "molecule": "[N-]=[N+]=Nc1cccc[n+]1[O-]",
    "experimental system": "L1210 leukemia ip in BDF1 mice, survival T/C",
    "T/C": "105 % of control"
  },
  {
    "molecule": "CCCCN(C)N=Nc1ccc(Cl)cc1C(N)=O",
    "experimental system": "L1210 leukemia ip in BDF1 mice, survival T/C",
    "T/C": "109 % of control"
  },
  {
    "molecule": "Sc1ccccc1Cl",
    "experimental system": "L1210 leukemia ip in BDF1 mice, survival T/C",
    "T/C": "102 % of control"
  },
  {
    "molecule": "Nc1nc(N)c2cc(CCc3ccccc3)ccc2n1",
    "experimental system": "L1210 leukemia ip in BDF1 mice, survival T/C",
    "T/C": "95 % of control"
  },
  {
    "molecule": "O=C(c1ccccc1)C1C(C(=O)c2ccccc2)N1C1CCCCC1 (configuration not stated)",
    "experimental system": "L1210 leukemia ip in BDF1 mice, survival T/C",
    "T/C": "91 % of control"
  }
]

query: Hello, please tell me recorded T/C for this one: COc1ccccc1/C=C/[N+](=O)[O-]
result: 101 % of control

query: Hello, please tell me recorded T/C for this one: Cc1noc(C)c1CC1(Cc2c(C)noc2C)C(=O)CCC2(C)CCCC=C21 (configuration not stated)
result: 95 % of control

query: Hello, please tell me recorded T/C for this one: Oc1c(Br)cc(Br)cc1/C=N/N=C/c1cc(Br)cc(Br)c1O
result: 90 % of control

query: Hello, please tell me recorded T/C for this one: C[S+](C)CC(=O)c1ccc(Br)cc1
result: 97 % of control

query: Hello, please tell me recorded T/C for this one: O=c1sc2ccccc2n1-c1ccccc1
result: 96 % of control

query: Hello, please tell me recorded T/C for this one: O=c1[nH]nc(N/N=C/c2ccccc2)n1/N=C/c1ccccc1
result: 100 % of control

query: Hello, please tell me recorded T/C for this one: O=C1CC(OC(=O)c2ccccc2)(c2ccccc2)OC(c2ccccc2)=C1c1ccccc1 (configuration not stated)
result: 97 % of control

###

Consider the following molecules and their measured T/C readings.
Test system: L1210 leukemia ip in BDF1 mice, survival T/C
protocol details: NCI In Vivo Anticancer Drug Screen. Data for tumor model L1210 Leukemia (intraperitoneal) in B6D2F1 (BDF1) mice
protocol conditions: endpoint: mean survival time; dose: 200.0 mg/kg/injection; schedule: Q01DX009 (ip); vehicle: Klucel (hydroxypropylcellulose) (HPC); higher = longer survival
Toxic doses and inconclusive results are not listed.

[
  {
    "molecule": "Cc1ccc(S(=O)(=O)Oc2ccc(Cl)cc2)cc1",
    "measured endpoint": "T/C",
    "result": "98 % of control"
  }
]

query: Fill in T/C for O=C(/C=C/c1ccccc1)N/N=C/c1cccs1 tested with L1210 leukemia ip in BDF1 mice, survival T/C.
result: 88 % of control

query: Fill in T/C for CC1(CCCCCBr)OCCO1 tested with L1210 leukemia ip in BDF1 mice, survival T/C.
result: 100 % of control

query: Fill in T/C for CCCC(C)(COC(N)=O)COC(=O)NC(C)C (stereo unspecified) tested with L1210 leukemia ip in BDF1 mice, survival T/C.
result: 97 % of control

query: Fill in T/C for Cc1ccc(C(=O)NS(=O)(=O)c2ccc(C)cc2)cc1 tested with L1210 leukemia ip in BDF1 mice, survival T/C.
result: 105 % of control

###

Consider the following compounds and their measured T/C readings.
System: L1210 leukemia ip in BDF1 mice, survival T/C
protocol details: NCI In Vivo Anticancer Drug Screen. Data for tumor model L1210 Leukemia (intraperitoneal) in B6D2F1 (BDF1) mice
protocol conditions: endpoint: mean survival time; dose: 200.0 mg/kg/injection; schedule: Q04DX003 (ip); vehicle: saline with Tween-80; higher = longer survival
Inconclusive results and toxic doses are left out.

query: Hello, please tell me recorded T/C for this one: C=C(Br)CNC(=O)Nc1ccccc1
result: 95 % of control

query: Hello, please tell me recorded T/C for this one: CCOC(=O)C(C(=O)OCC)c1cc(NC(=O)c2ccccc2)ccc1NC(=O)c1ccccc1
result: 95 % of control

query: Hello, please tell me recorded T/C for this one: CCN(CC)C(=O)CS(=O)(=O)c1ccc(C)cc1
result: 110 % of control

query: Hello, please tell me recorded T/C for this one: CCC(C(=O)OC)C1CCCCC1 (stereo unspecified)
result: 95 % of control

query: Hello, please tell me recorded T/C for this one: C=C(C=O)C1CCC2=C(CCC3(C)C(C(C)CCCC(C)C)CCC23C)C1(C)CCC#N (stereo unspecified)
result: 96 % of control

query: Hello, please tell me recorded T/C for this one: Cc1ccc(C(=O)CCC(=O)O)cc1
result: 98 % of control
